SYSTEM: Calcitonin-gene-related peptide receptor, CALCRL/RAMP1 (Homo sapiens, UniProt O60894+Q16602)
Sequence (O60894 whole entry): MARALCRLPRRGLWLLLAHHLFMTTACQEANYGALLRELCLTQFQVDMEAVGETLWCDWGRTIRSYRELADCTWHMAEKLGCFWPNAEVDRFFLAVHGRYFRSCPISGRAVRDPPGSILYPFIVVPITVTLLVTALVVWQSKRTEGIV
Sequence (Q16602 whole entry): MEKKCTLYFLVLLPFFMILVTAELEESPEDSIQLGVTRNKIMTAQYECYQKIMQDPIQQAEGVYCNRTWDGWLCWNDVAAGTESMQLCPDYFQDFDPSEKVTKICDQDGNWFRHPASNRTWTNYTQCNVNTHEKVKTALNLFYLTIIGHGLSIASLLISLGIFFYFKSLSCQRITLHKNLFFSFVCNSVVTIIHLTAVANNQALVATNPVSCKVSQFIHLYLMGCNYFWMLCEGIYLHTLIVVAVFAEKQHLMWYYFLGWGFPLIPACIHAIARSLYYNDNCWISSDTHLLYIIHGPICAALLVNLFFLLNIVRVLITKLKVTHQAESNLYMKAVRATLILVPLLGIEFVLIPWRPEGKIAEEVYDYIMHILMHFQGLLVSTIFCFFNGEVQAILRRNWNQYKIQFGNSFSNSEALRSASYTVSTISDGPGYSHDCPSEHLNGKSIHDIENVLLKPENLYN
ASSAY PROCEDURE: Displacement of [125I]-hCGRP from human CALCRL/RAMP1 expressed in HEK293 cell membranes
pKi: −log10 of the molar value.
PROPERTY LABEL: pKi

Example entries begin here.
Problem: Give the reported pKi for this compound. C[C@H](c1ccccc1)N(CCCc1cnc2c(c1)C[C@@]1(C2)C(=O)Nc2ncccc21)C(=O)C(C)(C)C
Result: 8.87

Problem: Give the reported pKi for this compound. CC(C)(C)C(=O)N(C/C=C/c1ccc2c(c1)C[C@@]1(C2)C(=O)Nc2ncccc21)[C@@H]1CCc2ccccc21
Result: 9.70

Problem: Give the reported pKi for this compound. C[C@H](c1ccccc1)N(C/C=C/c1ccc2c(c1)C[C@@]1(C2)C(=O)Nc2ncccc21)C(=O)C(C)(C)C
Result: 9.46

(a) Cc1cc(C(=O)N(C/C=C/c2ccc3c(c2)C[C@@]2(C3)C(=O)Nc3ncccc32)[C@H](C)c2cc(F)cc(F)c2)n(C)n1
(b) C[C@H](c1cc(F)cc(F)c1)N(C/C=C/c1ccc2c(c1)C[C@@]1(C2)C(=O)Nc2ncccc21)C(=O)C1CCOCC1
Problem: Which has the smaller recorded pKi, a or b ? Kindly give the label for the entry you pick.
Result: a
(a: 9.35, b: 10.05)

====

ASSAY PROCEDURE: Apparent passive permeability of the compound in presence of […]
Format: physicochemical
DETAILS: not told
PROPERTY LABEL: Papp (×10⁻⁶ cm/s)

Problem: Give the reported Papp for this compound. C[C@H](c1cc(F)cc(F)c1)N(C/C=C/c1ccc2c(c1)C[C@@]1(C2)C(=O)Nc2ncccc21)C(=O)C1CCOCC1
Result: 32

Problem: Give the reported Papp for this compound. CC(C)(C)C(=O)N(CC#Cc1cnc2c(c1)C[C@@]1(C2)C(=O)Nc2ncccc21)[C@@H]1CCc2ccccc21
Result: 26

(P) CC(C)(C)C(=O)N(CCCc1cnc2c(c1)C[C@@]1(C2)C(=O)Nc2ncccc21)[C@@H]1CCc2ccccc21
(Q) C[C@H](c1ccc(Cl)cc1)N(C/C=C/c1cnc2c(c1)C[C@@]1(C2)C(=O)Nc2ncccc21)C(=O)C(C)(C)C
Problem: Which has the smaller recorded Papp, P or Q ? Kindly give the label for the entry you pick.
Result: Q
(Q: 17 ×10⁻⁶ cm/s, P: 33 ×10⁻⁶ cm/s)

====

ASSAY PROCEDURE: Apparent passive permeability of the compound in presence of […]
Type: physicochemical
DETAILS: not told
PROPERTY LABEL: Papp (×10⁻⁶ cm/s)

Example entries begin here.
Problem: Give the reported Papp for this compound. C[C@H](c1ccccc1)N(CCCc1cnc2c(c1)C[C@@]1(C2)C(=O)Nc2ncccc21)C(=O)C(C)(C)C
Result: 39

Problem: Give the reported Papp for this compound. Cc1noc(C)c1C(=O)N(C/C=C/c1cnc2c(c1)C[C@@]1(C2)C(=O)Nc2ncccc21)[C@H](C)c1cc(F)cc(F)c1
Result: 29

(1) C[C@H](c1ccccc1)N(CC#Cc1cnc2c(c1)C[C@@]1(C2)C(=O)Nc2ncccc21)C(=O)C(C)(C)C
(2) CC(C)(C)C(=O)N(C/C=C/c1cnc2c(c1)C[C@@]1(C2)C(=O)Nc2ncccc21)Cc1cc(F)cc(F)c1
Problem: Which has the smaller recorded Papp, 1 or 2 ? Kindly give the label for the entry you pick.
Result: 2
(2: 23 ×10⁻⁶ cm/s, 1: 33 ×10⁻⁶ cm/s)

These measurements were taken from ChEMBL document CHEMBL3098057.
